Catalogue of melting point values

Consider the reported melting point for these compounds:
### Prompt Record request: melting point value, item O=C1CCCc2ccccc2N1
### Response 129 to 131 °C

### Prompt Field entry: O=C(O)c1cccc(S(=O)(=O)N2CCc3ccccc32)c1
### Response 174 to 176 °C

Next item in the queue.
### Prompt Report melting point for Cc1cccc(NC(S)=C(C#N)c2nc3ccccc3s2)c1C please.
### Response 94 to 98 °C

###

The following compounds are shown together with reported melting point values.

Some compounds with recorded melting point:
### Prompt Which value of melting point has been reported for O=C(c1cccs1)c1cccc2ccccc12 in the records?
### Response 65 to 67 °C

### Prompt Also check Cn1c(S)nnc1-c1ccncc1
### Response 121 to 123 °C

### Prompt Now try OCCn1ncc2ccccc21 .
### Response 48 to 50 °C

### Prompt Next compound: Nc1n[nH]c2cccc(F)c12
### Response 171 to 173 °C

Further cases:
### Prompt Given CN1CCc2ccc(S(=O)(=O)Cl)cc21 , state its recorded melting point.
### Response 62 to 64 °C

### Prompt Follow-up entry: CSc1cc(Br)ccc1C=O
### Response 81 to 83 °C

### Prompt Then this compound: CC1CC(C)CN(S(=O)(=O)c2ccc(NN)nc2)C1 (configuration not stated)
### Response 217 to 219 °C

### Prompt Request: CC(C)(C)OC(=O)Nc1ccc(C(F)(F)F)cc1C(=O)O
### Response 190 to 192 °C
